Every entry's value here was drawn from PubChem BioAssay (EPA / NIEHS).

Read-out: Alkaline Phosphatase, Placental (ALPP) gene, ALPP (gene 250)
test_details: LTEA_HepaRG_ALPP: Life Technologies and Expression Analysis (LTEA) Assay for Alkaline Phosphatase, Placental (ALPP) gene using HepaRG (AID 2283468)
study_conditions: mRNA level, 48 h; actives raise or lower the signal
Activity calls are given as the source filed them. The calls were made as follows: active = hit-call score of the fitted dose curve at least 0.9, where 1 is the maximum; inactive = score below 0.9.
Labels: 1 for active, 0 for inactive

structure_smiles_string	class_label
CN(C)CCOC(c1ccccc1)c1ccccc1	0
N=C(N)c1ccc(OCCCCCOc2ccc(C(=N)N)cc2)cc1	0
CS(=O)(=O)c1ccc([C@@H](CC2CCCC2)C(=O)Nc2cnccn2)cc1Cl	1
CCCCc1oc2ccccc2c1C(=O)c1cc(I)c(OCCN(CC)CC)c(I)c1	1
O=C(c1ccccc1)c1ccccc1	0
CCCCC=O	0
Cc1[nH]nc2c1N=C(c1ccccc1Cl)c1cc([N+](=O)[O-])ccc1N2	1
